- protocol: Half life in Sprague-Dawley rat 30 mg/kg, po measured up to 24 hrs by LC-MS/MS analysis
- Format: ADME, organism-based
- condition.details: in vivo
attribute.measured: half-life (h)
Answer with a number only, understood to be in h.

**Query** Name the recorded half-life for C[C@@H](Cn1ccc(-c2ccc(C#N)c(Cl)c2)n1)Nc1ncnc2nc[nH]c12 .
**Result** 1.79

----------
Each entry below carries its reported pIC50.
- Test system: PC-3
- protocol: Cytotoxicity against human PC3 assessed as reduction in cell viability incubated for 6 days by CCK-8 assay
- Type: cell-based
- condition.details: PC-3, 144 h
pIC50: −log10 of the molar value.

C[C@@H](Cn1ccc(-c2ccc(C#N)c(Cl)c2)n1)Nc1cncnc1 < 4.52
COC(=O)/C=C/C(=O)N[C@@H](C)Cn1ccc(-c2ccc(C#N)c(Cl)c2)n1 < 4.52
C[C@@H](Cn1ccc(-c2ccc(C#N)c(Cl)c2)n1)NS(=O)(=O)c1cn(C)cn1 < 4.52
Cc1ccnc(N[C@@H](C)Cn2ccc(-c3ccc(C#N)c(Cl)c3)n2)n1 < 4.52

Proceed to the following item.
**Query** Request: pIC50, test system PC-3, entry C[C@@H](Cn1ccc(-c2ccc(C#N)c(Cl)c2)n1)Nc1ncnc2ccccc12
**Result** < 4.52

----------
Each entry below carries its reported IC50.
- Tested on: PC-3
- protocol: Cytotoxicity against human PC3 assessed as reduction in cell viability incubated for 6 days by CCK-8 assay
- Format: cell-based
- condition.details: PC-3, 144 h

# annotated cases, reported IC50 shown
compound	target.or.test.system	IC50
C[C@@H](Cn1ccc(-c2cc(F)c(C#N)c(Cl)c2)n1)NC(=O)Nc1cc(C(C)(C)C)[nH]n1	PC-3	> 30 µM
CC(=O)c1ccc(C(=O)N[C@@H](C)Cn2ccc(-c3ccc(C#N)c(Cl)c3)n2)cc1	PC-3	> 30 µM
C[C@@H](Cn1ccc(-c2ccc(C#N)c(Cl)c2)n1)Nc1nc(Cl)nc2nc[nH]c12	PC-3	> 30 µM

**Query** Name the recorded IC50 for CNC(=O)c1ccc(N2C(=S)N(c3ccc(C#N)c(C(F)(F)F)c3)C(=O)C2(C)C)cc1F [ENZALUTAMIDE] .
**Result** > 30 µM

----------
- target.or.test.system: Androgen receptor (Homo sapiens) (UniProt P10275)
- Sequence (P10275 whole entry): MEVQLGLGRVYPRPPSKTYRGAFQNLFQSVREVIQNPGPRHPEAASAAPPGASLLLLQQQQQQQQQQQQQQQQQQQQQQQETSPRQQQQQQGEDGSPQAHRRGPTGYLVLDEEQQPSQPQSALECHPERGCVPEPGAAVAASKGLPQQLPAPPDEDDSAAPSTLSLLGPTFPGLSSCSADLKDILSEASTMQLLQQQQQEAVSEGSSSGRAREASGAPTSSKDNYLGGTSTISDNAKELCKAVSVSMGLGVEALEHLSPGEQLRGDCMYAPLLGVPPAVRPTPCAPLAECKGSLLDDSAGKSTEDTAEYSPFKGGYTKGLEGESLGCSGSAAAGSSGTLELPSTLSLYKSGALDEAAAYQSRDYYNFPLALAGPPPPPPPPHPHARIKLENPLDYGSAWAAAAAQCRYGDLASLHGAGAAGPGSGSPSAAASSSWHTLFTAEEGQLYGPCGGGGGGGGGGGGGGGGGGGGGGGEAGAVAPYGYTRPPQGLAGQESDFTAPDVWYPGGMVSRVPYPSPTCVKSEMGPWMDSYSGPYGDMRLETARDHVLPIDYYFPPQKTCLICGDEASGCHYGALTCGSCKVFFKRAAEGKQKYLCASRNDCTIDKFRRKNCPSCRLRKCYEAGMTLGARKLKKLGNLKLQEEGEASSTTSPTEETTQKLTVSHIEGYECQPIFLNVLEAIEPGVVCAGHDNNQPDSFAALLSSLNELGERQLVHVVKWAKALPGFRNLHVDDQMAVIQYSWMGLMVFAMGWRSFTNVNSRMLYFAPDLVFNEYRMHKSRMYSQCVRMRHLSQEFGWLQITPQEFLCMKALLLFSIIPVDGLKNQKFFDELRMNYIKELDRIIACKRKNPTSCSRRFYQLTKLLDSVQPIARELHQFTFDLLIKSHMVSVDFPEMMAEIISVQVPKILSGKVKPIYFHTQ
- protocol: Inhibition of AR in human HEK293 cells assessed as decrease in receptor transactivation at 10 uM incubated for 24 hrs by dual luciferase reporter gene assay
- Assay type: cell-based
The source made the active and inactive calls. The rule behind the calls is not given here.
attribute.measured: inhibition

compound	inhibition
C[C@@H](Cn1ccc(-c2ccc(C#N)c(Cl)c2)n1)Nc1cccc2ncccc12	Active
C[C@@H](Cn1ccc(-c2ccc(C#N)c(Cl)c2)n1)Nc1ncnc2ccccc12	Active
CC(O)c1cccc(C(=O)N[C@@H](C)Cn2ccc(-c3ccc(C#N)c(Cl)c3)n2)c1 (stereo partly specified)	Active
C[C@@H](Cn1ccc(-c2ccc(C#N)c(Cl)c2)n1)Nc1cccnc1	Active
C[C@@H](Cn1ccc(-c2ccc(C#N)c(Cl)c2)n1)Nc1ncnc2nc[nH]c12	Active

Proceed to the following item.
**Query** Request: inhibition, test system Androgen receptor (Homo sapiens) (UniProt P10275), entry CC(Cn1ccc(-c2ccc(C#N)c(Cl)c2)n1)C(=O)Nc1cccc(C(C)O)c1 (racemic)
**Result** Active

----------
- protocol: AUC (0 to t) in Sprague-Dawley rat 30 mg/kg, po measured up to 24 hrs by LC-MS/MS analysis
- Format: ADME, organism-based
- Design: dose 30 mg/kg, time < 24 hr, route oral
- condition.details: in vivo
attribute.measured: AUC(0-t) at 24 h (ng·h/mL)
Answer with a number only, understood to be in ng·h/mL.

**Query** Name the recorded AUC(0-t) at 24 h for C[C@@H](Cn1ccc(-c2ccc(C#N)c(Cl)c2)n1)Nc1ncnc2nc[nH]c12 .
**Result** 7280

----------
- System: CWR22R
- protocol: Antiproliferative activity against human 22Rv1 expressing AR assessed as reduction in cell viability incubated for 6 days by CCK-8 assay
- Assay type: functional, cell-based
- condition.details: 22Rv1, 144 h
attribute.measured: IC50 (µM)
Answer with a number only, understood to be in µM.

# annotated cases, reported IC50 shown
compound	target.or.test.system	attribute.measured	value
CC(O)c1cccc(C(=O)N[C@@H](C)Cn2ccc(-c3ccc(C#N)c(Cl)c3)n2)c1 (some centres undefined)	CWR22R	IC50	20.1
Cc1ccnc(N[C@@H](C)Cn2ccc(-c3ccc(C#N)c(Cl)c3)n2)n1	CWR22R	IC50	4.76
C[C@@H](Cn1ccc(-c2ccc(C#N)c(Cl)c2)n1)Nc1ccc2c(ccn2C)c1	CWR22R	IC50	12

**Query** Name the recorded IC50 for C[C@@H](Cn1ccc(-c2ccc(C#N)c(Cl)c2)n1)Nc1ccnc2ccccc12 .
**Result** 4.29

**Query** Name the recorded IC50 for C[C@H](Cn1ccc(-c2ccc(C#N)c(Cl)c2)n1)Nc1ncnc2ccccc12 .
**Result** 9.71

**Query** Name the recorded IC50 for C[C@@H](Cn1ccc(-c2ccc(C#N)c(Cl)c2)n1)Nc1cccc2ncccc12 .
**Result** 3.92

**Query** Name the recorded IC50 for CC(O)c1ccc(C(=O)N[C@@H](C)Cn2ccc(-c3ccc(C#N)c(Cl)c3)n2)cc1 (some centres undefined) .
**Result** 9.05

**Query** Name the recorded IC50 for C[C@@H](Cn1ccc(-c2ccc(C#N)c(Cl)c2)n1)Nc1cccc2ccncc12 .
**Result** 4.72

**Query** Name the recorded IC50 for C[C@H](Cn1ccc(-c2ccc(C#N)c(Cl)c2)n1)Nc1ncnc2nc[nH]c12 .
**Result** 10.6

**Query** Name the recorded IC50 for C[C@@H](Cn1ccc(-c2ccc(C#N)c(Cl)c2)n1)Nc1ccc2cccnc2c1 .
**Result** 5.82

**Query** Name the recorded IC50 for C[C@@H](Cn1ccc(-c2ccc(C#N)c(Cl)c2)n1)Nc1cnc2ccccc2c1 .
**Result** 6.04

----------
- Tested on: PC-3
- protocol: Cytotoxicity against human PC3 assessed as reduction in cell viability incubated for 6 days by CCK-8 assay
- Format: cell-based
- condition.details: PC-3, 144 h
pIC50: −log10 of the molar value.
attribute.measured: pIC50

# annotated cases, reported pIC50 shown
compound	value
CC(Cn1ccc(-c2ccc(C#N)c(Cl)c2)n1)C(=O)Nc1cccc(C(C)O)c1 (racemic)	< 4.52
C[C@@H](Cn1ccc(-c2ccc(C#N)c(Cl)c2)n1)Nc1cccc2ncccc12	5.10
CC(=O)c1cccc(NC(=O)C(C)Cn2ccc(-c3ccc(C#N)c(Cl)c3)n2)c1 (racemic)	< 4.52

**Query** Name the recorded pIC50 for C[C@@H](Cn1ccc(-c2ccc(C#N)c(Cl)c2)n1)Nc1nccc2ccccc12 .
**Result** < 4.52

**Query** Name the recorded pIC50 for C[C@@H](Cn1ccc(-c2ccc(C#N)c(Cl)c2)n1)Nc1cccc2ccncc12 .
**Result** 5.29

**Query** Name the recorded pIC50 for C[C@@H](Cn1ccc(-c2ccc(C#N)c(Cl)c2)n1)Nc1ccccc1 .
**Result** 5.49

**Query** Name the recorded pIC50 for C[C@@H](Cn1ccc(-c2ccc(C#N)c(Cl)c2)n1)NC(=O)c1cccc(OCC(O)CO)c1 (stereo partly drawn) .
**Result** < 4.52

**Query** Name the recorded pIC50 for CC(Cn1ccc(-c2ccc(C#N)c(Cl)c2)n1)C(=O)Nc1cc[nH]n1 (racemic) .
**Result** < 4.52

----------
- protocol: Plasma concentration in Sprague-Dawley rat 30 mg/kg, po measured up to 24 hrs by LC-MS/MS analysis
- Type: ADME, organism-based
attribute.measured: Cmax (ng/mL)
Answer with a number only, understood to be in ng/mL.

**Query** Name the recorded Cmax for C[C@@H](Cn1ccc(-c2ccc(C#N)c(Cl)c2)n1)Nc1ncnc2nc[nH]c12 .
**Result** 2650

----------
- System: CWR22R
- protocol: Antiproliferative activity against human 22Rv1 expressing AR assessed as reduction in cell viability incubated for 6 days by CCK-8 assay
- Assay type: functional, cell-based
- condition.details: 22Rv1, 144 h
attribute.measured: IC50

# annotated cases, reported IC50 shown
C[C@@H](Cn1ccc(-c2ccc(C#N)c(Cl)c2)n1)Nc1ccncc1 11.5 µM
C[C@@H](Cn1ccc(-c2ccc(C#N)c(Cl)c2)n1)Nc1ccc2ccccc2n1 7.95 µM
C[C@@H](Cn1ccc(-c2ccc(C#N)c(Cl)c2)n1)Nc1nccc2ccccc12 3.57 µM
C[C@@H](Cn1ccc(-c2ccc(C#N)c(Cl)c2)n1)Nc1nccc(Cl)n1 > 30 µM
C[C@@H](Cn1ccc(-c2ccc(C#N)c(Cl)c2)n1)Nc1ccc2ccccc2c1 4.61 µM
C[C@@H](Cn1ccc(-c2ccc(C#N)c(Cl)c2)n1)Nc1ncnc2nc[nH]c12 4.24 µM
CC(=O)c1cc(C(=O)N[C@@H](C)Cn2ccc(-c3ccc(C#N)c(Cl)c3)n2)n[nH]1 > 30 µM
C[C@@H](Cn1ccc(-c2ccc(C#N)c(Cl)c2)n1)Nc1cccnc1 21.6 µM

Proceed to the following item.
**Query** Name the recorded IC50 for C[C@@H](Cn1ccc(-c2ccc(C#N)c(Cl)c2)n1)Nc1cccc2cccnc12 .
**Result** > 30 µM
